- test.system: Protein kinase C, as a mixture of isozymes
- assay.explanation: PKC activity assay, 32P transfer from [γ-32P]ATP to histone III-S
- cond: histone III-S substrate, 15 min, three trials per concentration
Please go through the items and note down their IC50.

Below, each entry is followed by its recorded IC50 result.
{"columns": ["molecule", "IC50"],
 "data": [
  ["CN1C(=O)c2c3c(c4c(c2C1=O)c1ccccc1n4CCCNC(=O)OC(C)(C)C)CCC(O)CC3 (stereo not shown)", "> 10 µM"],
  ["O=C1CCc2c3c(c4c([nH]c5ccccc54)c2CC1)C(=O)NC3=O", "3.6 µM"],
  ["CN1C(=O)c2c3c(c4[nH]c5ccccc5c4c2C1=O)CCC(=O)CC3", "> 10 µM"]
]}

Okay, now this molecule:
So, O=C1NC(=O)c2c1c1c(c3[nH]c4ccccc4c23)CCC(O)CC1 (stereo not shown) ? Its IC50 was 4.5 µM
